# target: PD-1 antigen (ELISA of Example 2) (human, UniProt Q15116 25-167, limits assumed)
# Sequence (Q15116 25-167 limits assumed): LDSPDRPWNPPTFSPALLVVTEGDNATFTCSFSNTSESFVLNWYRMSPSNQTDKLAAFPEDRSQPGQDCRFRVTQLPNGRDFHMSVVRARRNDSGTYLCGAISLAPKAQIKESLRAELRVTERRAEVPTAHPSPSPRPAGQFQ
# assayRemarks: ELISA, signal on PD-1 antigen over control
quantityKind: A/control

query: So what does the record say about A/control for 2PD90 (VHH, PD-1 VHH) VHH: QVQLQESGGGLVQPGGSLRLSCSASGFSVDYYAIAWFRQAPGKEREEISCITGSDFMVDTYYVASVKGRFTISRDNAKNTAYLQMNSLKPEDTGVYFCAVRSTANTLCPSHYSIMDYWGKGTQVTVSS ?
result: 5.23

query: # iterate: 2PD-16 (VHH, PD-1 VHH) VHH: QVQLQESGGGLVQAGGSLRLSCAASGGFNRVSYMGWYRQAPGTKRELVASVTSGGEITIADSVKGRFTVSRDNSKNTLYLQMNGLKPEDGATYWCNADIWVSDARMYNYWGQGTQVTVSS
result: 3.84

query: Next binder up: 2PD8 (VHH, PD-1 VHH) VHH: QVQLQESGGGSVQAGDSLRLSCTASGRTFSSLGMGWFRQAPGKEREFVSAIAWNGASTYYTESVKGRFTISRDDAKNTVYLQMNSLKPTDTAVYFCAASGLGSVVVTANEYDYWGQGTQVTVSS
result: 3.03

query: And the next one, 2PD-106 (VHH, PD-1 VHH) VHH: QVQLQESGGGLVQPGGSLRLSCSASGFSMDYYAIAWFRQAPGKEREEISCITGSDFMVDTYYVASVKGRFTISRDNAKNTAHLQMNSLKPEDTGVYFCAVRSTANTLCPSHYSVMDYWGKGTQVTVSS ?
result: 6.9

query: Here is the next binder: 3PD55 (VHH, PD-1 VHH) VHH: QVQLQESGGGLAQAGGSLRLSCEGSGLSLDYDGVGWFRQAPGKEREAVSCISSSDGSTYYADSVKGRFTISRGNALNTLYLQMNSLKPEDTAVYYCATATLCDGGIWGYWGQGTQVTVSS
result: 40.4

query: Same for 2PD26 (VHH, PD-1 VHH) VHH: QVQLQESGGGLVQAGGSLRLSCAASGFSMDYYAIAWFRQAPGKEREEISCITGSDFMVDTYYVASVKGRFTISRDNAENTAYLQMNNLKPEDTGVYFCAVRSTANTLCPSHYSVMDYWGKGTQVTVSS
result: 4.2

query: Also check 2PD-152 (VHH, PD-1 VHH) VHH: QVQLQESGGGLVQTGESLRLSCAASGIIKSINFMGWYRQPPGTKRELVASTTSDGRTTVADSVKGRFTISRDNAKNTIYLEMSSLKPEDTATYWCNADIWLPSDRMYNYWGQGTQVTVSS
result: 6.38

query: Can you check 2PD82 (VHH, PD-1 VHH) VHH: QVQLQESGGGLVQPGGSLRLSCTTSGFAFGSYDMGWVRQAPGKGPEWVSGINSGGRITDYADSVTGRFTISRDNAKNTLYLQMNSLKPEDTAVYYCAQGDRSSWHYYGMDYWGKGTQVTVSS next?
result: 4.38

Origin of the recorded values: patent US20250361305A1
